Listed binders paired with reported Neut IC50 (µg/ml) subtype A
- tested target: RSV F protein of subtype A (strain A2) on recombinant mKate-RSV (Respiratory syncytial virus subtype A …, UniProt P03420 26-574)
- assay procedure: cell-based or functional assay

# binder, Neut IC50 (µg/ml) subtype A
rows = [
    ("ADI-14531 (antibody, V domains shown, IgG; also called Antibody Number 91) VH: QVQLVQSGAEVKKPGSSVKVSCKASGVILTSVAVSWVRQAPGKGFEWMGGILPGFNKVRHAQDFENRATHTADASTNTVYMELSGLKSEDTAVYYCAIIDPQDCTRASCFWVNWLAPWGQGTLVTVSS VL: ETTLTQSPGTLTLSPGERATLSCRASQSVPSRNLAWYQQKPGQAPRLIIYAASNRATDIPDRFSGSGSGTDFTLTISRLEPQDFAVYYCQQYETSPITFGQGTKVDIK", "> 10 µg/mL"),
]

[ask] # input binder: ADI-14558 (antibody, V domains shown) VH: QVQLVESGGGLIQPGASLRLSCGAYGFSFSSSAMSWVRQAPGKGLEWVSAISDNGGSTYYADSVQGRFTISRDNSKNTLYLQLNRLRAEDTAIYYCAKAYCSDSCHGGYFDYWGQGTLVTVSS VL: EIVLTQSPATLSLSPGDRATLSCRASQSVSSSFAWYQQKPGQAPRLLIYAVSNRATGIPARFSGSGSGTDFTLTISTLEPEDFAVYYCQQRSTWPLTFGPGTKVEIK ; wanted: its Neut IC50 (µg/ml) subtype A
[reply] > 10 µg/mL
